Assay: yeast display, Sf9 membrane polyspecificity reagent, FACS + sequencing; frameworks hold sequencing errors
quantity-name: polyreactivity (PSR sort gate)

Solved entries:
# residue-codes, polyreactivity (PSR sort gate)
measured = [
    ("QVQLVESGGGLVQAGGSLRLSCAASGRIWVNAMGCYRQAPWKESELVAAISTSSASTYYADSVKGRFTISRDNAKNTVYLEMNSLKPEDTAVYYCAARWARQLGSGRRGDYWGQGTQVTVSS", "high polyreactivity"),
    ("QVHLVESGGGLVQAGGSHRLSCAASGSIFWYNAMGWYRQAPGKERELVAGITYGGDTNYADSVKGRFTISRDNAKNTVYLQMNSLKPEDTAVYYCAKRWYGGRRYDYWGQGTQVTVSS", "low polyreactivity"),
    ("QVHLVESGGGLVQAGGSLRLSCAASGFIFRRYAMGWYRQAPGKERELVAAITSSGTSTYYADSVKGRFTISRDNAKNTVYLQMNSLKPEDAAVYFCNRDNYVRWIREDFDYWGQGTQVTVSS", "high polyreactivity"),
    ("QVQLVESGGGLVQAGGILRLSCAASGNIFPLYAMGWYRQAPGKERELVAAITWSTTSTYYADSVKGRFTISRDNAKNTVYLQMNSLKPEDTAVYYCAAGAYRRNKSDYYYWGQGTQVTVSS", "low polyreactivity"),
    ("QDQLVESGGGLVQAGGSLRLSCAASGRTFSYNTMGWYRQAPGKERELVAAITRSGGSTYYADSVKGRFTISRDNAKNTVYLQINSLKPEDTAVYYCNARSWYWGQGTQVTVSS", "high polyreactivity"),
]

Entry under test: `QVQLVESGGGLVQAGGSLRLSCAASGRTFGYYAMGWYRQAPGKERELVAAISTSGGGTYYADSVKGRFTISRDNAKYTVYLQMNSLKPVDTAVYYCARDRNTRYKFDYWGQGTQVTLSS` . Its polyreactivity (PSR sort gate) was low polyreactivity

Entry under test: `QVQLVESGGGLVQAGGSLRLSCPASGRIFYVYAMGWYRQAPGKERELVAAITSSGGSTNYADSVKGRFTISRDNAKNTVYLQMNSLKPEDTAVYYCAAKPYYIPTRTYSHYNFWGQGTQVTVSS` . Its polyreactivity (PSR sort gate) was high polyreactivity

Entry under test: `QVQLVESGGGLVQAGGSLRLSCAASGFTFSYYAMGWYRPAPGKERELVAAITSGGSTYYADYVKGRFTISRDNAKNTVYLQMNSLKPEDTAVYYCNADGWYYPTDDYWGQGTQVTVSS` . Its polyreactivity (PSR sort gate) was low polyreactivity
